Recorded inhibition at 10 min, 10 µM values for a group of compounds are listed next.
Target: CYP2D6 (Homo sapiens, UniProt P10635)
Construct: tissue BD-Gentest 452117; host or cells: human liver microsomes
Sequence (P10635 whole entry): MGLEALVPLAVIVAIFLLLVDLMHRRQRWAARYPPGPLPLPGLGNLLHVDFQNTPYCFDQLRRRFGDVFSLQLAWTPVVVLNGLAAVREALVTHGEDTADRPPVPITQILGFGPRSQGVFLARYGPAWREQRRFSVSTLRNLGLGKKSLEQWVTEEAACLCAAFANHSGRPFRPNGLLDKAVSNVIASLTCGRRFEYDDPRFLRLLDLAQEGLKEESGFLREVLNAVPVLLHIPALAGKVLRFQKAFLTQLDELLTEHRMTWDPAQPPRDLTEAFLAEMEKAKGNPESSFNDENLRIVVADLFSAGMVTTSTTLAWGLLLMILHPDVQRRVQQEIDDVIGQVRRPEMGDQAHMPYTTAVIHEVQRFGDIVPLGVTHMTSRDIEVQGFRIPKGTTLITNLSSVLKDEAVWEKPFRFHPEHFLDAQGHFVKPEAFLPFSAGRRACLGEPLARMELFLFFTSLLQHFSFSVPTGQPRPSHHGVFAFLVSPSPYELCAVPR
Assay: CYP inhibition assay in human liver microsome, CYP2D6
Assay type: in vitro ADME
Details: human, human liver microsomes, probe dextromethorphan 5 μM, substrate dextromethorphan 5 μM, second value of 2C9/2D6/3A4
Number only, in %; omit the unit.

Recorded results for 2 compounds are shown here.
{"columns": ["STRUCTURE_AS_SMILES", "UNIT_ABBREV", "inhibition at 10 min, 10 µM"],
 "data": [
  ["C[C@@H]1CN(c2ccc(C#N)n3ncc(F)c23)C[C@H](CN2CCN(c3ccc(N4CC5(CN(C)C5)C4)nc3)CC2)O1", "%", 0],
  ["C[C@@H]1CN(c2ccc(C#N)n3ncc(F)c23)C[C@H](CN2CC(c3ccc(N4CC(C)(N)C4)nc3)C2)O1", "%", -7.5]
]}

Sample C[C@@H]1CN(c2ccc(C#N)c3ncccc23)C[C@H](CN2CCN(c3ccnc(N4CCN[C@@H](CO)C4)n3)CC2)O1 — what was its inhibition at 10 min, 10 µM?
8.5

Input C[C@@H]1CN(c2ccc(C#N)c3ncccc23)C[C@H](CN2CCN(c3ccc(N4CCNCC4)cn3)CC2)O1
6

Input C[C@@H]1CN(c2ccc(C#N)c3ncccc23)C[C@H](CN2CCN(c3ccnc(N4C[C@H](N)[C@@H](F)C4)n3)CC2)O1
13.5

Input C[C@@H]1CN(c2ccc(C#N)c3nccnc23)C[C@H](CN2CCN(c3ccnc(N4C[C@H](N)[C@@H](F)C4)n3)CC2)O1
16

Input C[C@@H]1CN(c2ccc(C#N)n3ncc(F)c23)C[C@H](CN2CCN(c3ccc(N4CC(C)(N)C4)nc3)CC2)O1
-10.5

* * *

Biological target: human TLR8 (Homo sapiens)
Sequence (Q9NR97 27-1041): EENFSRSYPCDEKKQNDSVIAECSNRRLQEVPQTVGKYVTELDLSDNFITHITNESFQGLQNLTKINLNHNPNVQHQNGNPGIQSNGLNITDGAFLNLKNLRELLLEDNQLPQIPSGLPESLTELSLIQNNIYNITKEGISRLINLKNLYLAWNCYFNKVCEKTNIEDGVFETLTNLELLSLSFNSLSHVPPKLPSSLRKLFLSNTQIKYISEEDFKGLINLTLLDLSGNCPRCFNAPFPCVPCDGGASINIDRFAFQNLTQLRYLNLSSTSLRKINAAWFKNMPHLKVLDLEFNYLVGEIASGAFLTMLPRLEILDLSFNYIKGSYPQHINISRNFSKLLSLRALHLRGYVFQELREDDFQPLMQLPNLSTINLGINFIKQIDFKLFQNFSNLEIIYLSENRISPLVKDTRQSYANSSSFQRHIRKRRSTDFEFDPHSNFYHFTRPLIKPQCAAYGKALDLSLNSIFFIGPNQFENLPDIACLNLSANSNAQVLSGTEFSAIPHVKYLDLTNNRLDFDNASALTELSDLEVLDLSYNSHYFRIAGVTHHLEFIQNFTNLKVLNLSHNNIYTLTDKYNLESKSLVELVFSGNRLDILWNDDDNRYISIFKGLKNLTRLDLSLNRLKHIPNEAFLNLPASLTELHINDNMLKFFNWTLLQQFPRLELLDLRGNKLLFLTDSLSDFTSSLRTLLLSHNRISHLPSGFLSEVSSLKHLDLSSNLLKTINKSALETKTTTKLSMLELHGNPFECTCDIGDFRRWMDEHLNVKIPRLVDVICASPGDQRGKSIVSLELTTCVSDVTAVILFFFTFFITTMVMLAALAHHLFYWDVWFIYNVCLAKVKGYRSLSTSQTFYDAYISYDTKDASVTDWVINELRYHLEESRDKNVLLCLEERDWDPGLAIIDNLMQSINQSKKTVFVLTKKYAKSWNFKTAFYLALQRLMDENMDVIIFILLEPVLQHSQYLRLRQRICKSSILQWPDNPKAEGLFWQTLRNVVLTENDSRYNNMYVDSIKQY
Experiment: HEK293-Blue-hTLR-8 cells assay (SEAP reporter, R848 stimulation)
Conditions: HEK293-Blue-hTLR8 cells, R848, 20 hrs; read-out: HEK/hTLR8 IC50
MEASUREMENT_LABEL: IC50 (nM)
Number only, in nM; omit the unit.

Recorded results for 6 molecules are shown here.
{"columns": ["MOLECULE", "IC50, nM"],
 "data": [
  ["[2H]c1ccc2c(N3C[C@H](CN4CCN(c5nc(C)cc(N6C[C@@H](N)[C@H](OC)C6)n5)CC4)O[C@H](C)C3)ccc(C#N)c2n1", 1],
  ["Cc1ccc(N2C[C@H](CN3CCN(c4ccnc(N5C[C@H]6NCCO[C@@H]6C5)n4)CC3)O[C@H](C)C2)c2nccnc12", 7],
  ["[2H]c1ccc2c(N3C[C@H](CN4CCN(c5ccc(N6C[C@H]7C[C@@H]6CN7)nc5)CC4)O[C@H](C)C3)ccc(C#N)c2n1", 19],
  ["Cc1cc(N2CCN(C[C@H]3CN(c4ccc(C#N)c5ncccc45)C[C@@H](C)O3)CC2)nc(N2C[C@H](N)C[C@@H](F)C2)n1 (relative stereo)", 3],
  ["C[C@@H]1CN(c2ccc(C#N)c3ncccc23)C[C@H](CN2CCN(c3ccnc(N4CC(N)C4)n3)CC2)O1", 18],
  ["C[C@@H]1CN(c2cc(=O)n(C)c3ncccc23)C[C@H](CN2CC(c3ccc(N4CC(C)(N)C4)cc3)C2)O1", 323]
]}

Sample C[C@@H]1CN(c2ccc(C#N)c3ncccc23)C[C@H](CN2CCN(c3cncc(N4CCNCC4)c3)CC2)O1 — what was its IC50?
9

Input Cc1cc(N2CCN(C[C@H]3CN(c4ccc(C#N)c5ncccc45)C[C@@H](C)O3)CC2)nc(N2CC(N)CC(F)(F)C2)n1 (stereo partly shown)
6

Input CO[C@H]1CN(c2nc(C)cc(N3CCN(C[C@H]4CN(c5ccc(C#N)c6ncccc56)C[C@@H](C)O4)CC3)n2)CCC1N (stereo in doubt)
2
